tested target: OPRM1 (Mμ opioid receptor gene) receptor (Homo sapiens, UniProt P35372)
Sequence (P35372 whole entry): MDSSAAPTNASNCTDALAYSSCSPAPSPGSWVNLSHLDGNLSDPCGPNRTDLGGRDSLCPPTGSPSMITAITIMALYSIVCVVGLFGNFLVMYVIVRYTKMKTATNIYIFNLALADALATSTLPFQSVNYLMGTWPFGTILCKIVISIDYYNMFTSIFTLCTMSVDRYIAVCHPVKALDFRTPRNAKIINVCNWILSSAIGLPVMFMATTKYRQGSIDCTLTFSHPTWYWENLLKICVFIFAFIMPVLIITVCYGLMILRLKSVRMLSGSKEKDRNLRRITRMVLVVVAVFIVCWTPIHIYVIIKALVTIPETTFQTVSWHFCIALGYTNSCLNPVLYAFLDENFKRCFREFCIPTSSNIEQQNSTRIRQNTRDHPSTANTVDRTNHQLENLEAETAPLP
experimental setup: CHO-K1/Gα15/OPRM1 cells, inhibitor detection against EC80 positive agonist, RFU
pIC50: −log10 of the molar value.
measurement name: pIC50

INSERT INTO assay_data (compound, measurement_name, value_measured) VALUES
  ('C=CCN1CCC23c4c5ccc(O)c4OC2C(OCCOCCOCCOCCOCCOCCOC)CCC3(O)C1C5 (stereo not shown)', 'pIC50', 5.42);

---

This listing pairs molecules with measured inhibition at 10 µM.
tested target: OPRM1 (Mμ opioid receptor gene) receptor (Homo sapiens)
experiment description: cell-based
experimental setup: OPRM1, read-out: Inhibition rate (%) of highest concentration (mean ± standard deviation) (N = 2)
measurement name: inhibition at 10 µM (%)

INSERT INTO measurements (molecule, tested_target, value_measured) VALUES
  ('COCCOCCOCCOCCOCCOCCOCCOCCO[C@H]1CC[C@@]2(O)[C@H]3Cc4ccc(O)c5c4[C@@]2(CCN3CC2CC2)[C@H]1O5 [Nal041, mPEG8-(6-α-naltrexol)-ether]', 'OPRM1 (Mμ opioid receptor gene) receptor (Homo sapiens)', 95.8),
  ('C=CCN1CC[C@]23c4c5ccc(O)c4O[C@H]2[C@@H](OCCOCCOCCOCCOCCOCCOCCOCCOC)CC[C@@]3(O)[C@H]1C5', 'OPRM1 (Mμ opioid receptor gene) receptor (Homo sapiens)', 94.3),
  ('Oc1ccc2c3c1O[C@H]1[C@@H](OCCOCCOCCOCCOCCOCCO[C@H]4CC[C@@]5(O)[C@H]6Cc7ccc(O)c8c7[C@@]5(CCN6CC5CC5)[C@H]4O8)CC[C@@]4(O)[C@@H](C2)N(CC2CC2)CC[C@]314 [Nal025, PEG6-(6-α-naltrexol)2-ether]', 'OPRM1 (Mμ opioid receptor gene) receptor (Homo sapiens)', 101),
  ('Oc1ccc2c3c1O[C@H]1[C@@H](OCCOCCOCCOCCO[C@H]4CC[C@@]5(O)[C@H]6Cc7ccc(O)c8c7[C@@]5(CCN6CC5CC5)[C@H]4O8)CC[C@@]4(O)[C@@H](C2)N(CC2CC2)CC[C@]314 [Nal021, PEG4-(6-α-naltrexol)2-ether]', 'OPRM1 (Mμ opioid receptor gene) receptor (Homo sapiens)', 100);
